Please go through the items and note down their Percent Effect.
- study target: Arginase-2, mitochondrial (Homo sapiens) (UniProt P78540)
- Sequence (P78540 whole entry): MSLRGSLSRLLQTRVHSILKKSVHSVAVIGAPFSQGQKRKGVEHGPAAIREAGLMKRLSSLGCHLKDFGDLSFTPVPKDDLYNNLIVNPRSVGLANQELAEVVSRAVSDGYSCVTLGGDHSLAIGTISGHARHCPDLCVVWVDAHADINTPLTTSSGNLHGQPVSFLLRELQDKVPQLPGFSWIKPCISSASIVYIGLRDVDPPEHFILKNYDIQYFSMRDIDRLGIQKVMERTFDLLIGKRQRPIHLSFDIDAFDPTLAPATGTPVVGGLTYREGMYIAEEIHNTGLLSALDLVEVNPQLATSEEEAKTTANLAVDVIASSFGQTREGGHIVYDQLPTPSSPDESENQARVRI
- procedure summary: in vitro enzyme assay to detect the production of urea directly proportional to the activity of Arginase II; note: in the data most compounds retested in dose-response had high values
- Assay type: functional
- Design: scale not given: direction of the effect not stated beside the values
- condition info: 33.3 µM
Just the number please, in %, no unit attached.

Record request: Percent Effect value, item "CCc1nnc2n1CCN(Cc1ccc(C(=O)N3CCCC3)cc1)C2"
-4.25

Entry "CN(C)C(=O)[C@@H]1CCO[C@@H]2CCN(Cc3ccc4c(c3)OCO4)C[C@@H]21" please
-4.86

Entry Cc1cc(N2CCN(Cc3ccccc3)CC(O)C2)cc(C)n1 (centres undefined) please
-3.81

Entry COCC1CN(S(C)(=O)=O)Cc2ncn(CC3CC3)c21 (centres undefined) please
0.248

Entry "O=C1CCCN1Cc1nnc2n1CCN(Cc1ccoc1)CC2" please
1.83

Entry Cc1cnc2n(c1=O)CC(C(=O)NC1CC1)CS2 (centres undefined) please
4.54

Entry CNC(=O)C1(CCCc2cccnc2)CCCCN1 (centres undefined) please
0.696

Entry "Cc1cccc(C2(CNC(=O)CCN3C(=O)CCC3=O)CCCC2)c1" please
-4.56

Entry "CCn1cc(NC(=O)NCc2ccc(CN3CCOCC3)cc2)cn1" please
-6.35

Entry "CC(C)c1n[nH]c(C(=O)Nc2ccnn2C(C)C)c1Br" please
-6.84

Entry CCc1nc(C2CCCN(C(=O)c3ccc(OC(C)C)nc3)C2)no1 (centres undefined) please
3.16

Entry Cc1ccc(C(NC(=O)[C@H]2CC[C@@H](O)CC2)c2cccnc2)cc1C (some centres undefined) please
4.17

Entry CS(=O)(=O)NCC1CCCN(C(=O)c2cc3ccccc3o2)C1 (centres undefined) please
-9.22

Entry CC(=O)NCc1ccc(C(=O)N2CCCCC2Cn2cccn2)o1 (centres undefined) please
-5.36

Entry CC(C)Oc1ncccc1CNC(=O)C1CCCN(C(=O)C2CC2)C1 (centres undefined) please
0

Entry CC(C)(C)n1ncc2c1NC(=O)CC2c1ccccc1 (centres undefined) please
-3.15

Entry CCC(=O)N1CCC(Cc2ccccc2-c2ccccc2)(C(N)=O)C1 (centres undefined) please
7.69

Entry CC(C)N(C)C(=O)C1=NOC2(CCN(C(=O)c3ccccn3)C2)C1 (centres undefined) please
-3.59

Entry CCc1nc2n(n1)CC(Nc1cc(C)nc3ncnn13)CC2 (centres undefined) please
8.64

Entry Cc1c[nH]c(CN(C)C(=O)C2CC(=O)N(Cc3ccncc3)C2)n1 (centres undefined) please
-1.24

Entry "Cc1ccc(CN2CCc3c(C(=O)N(C)C)nn(C)c3C2)s1" please
0

Entry Cc1c(Br)cccc1C(=O)NC(C)CN1CCCC1=O (centres undefined) please
0.909

Entry CCn1ccnc1CN1CCN(CC(O)Cn2cccn2)CC1 (centres undefined) please
-4.51

Entry "Cn1ccnc1CN1CCCN(C(=O)c2ccc(Cl)o2)CC1" please
1.44

----------
- study target: Tyrosyl-tRNA synthetase, putative (Trypanosoma cruzi (strain CL Brener))
- procedure summary: Trypanosoma cruzi tyrosyl tRNA synthetase (TcYRS) SOP
- Format: functional
- Set-up: scale not given: direction of the effect not stated beside the values
- condition info: 30 µM
measured attribute: Percent Effect (%)
Just the number please, in %, no unit attached.

Form: Entry = "CCCn1nc2c(cc1=O)CN(CC(=O)Nc1ccncc1)CC2" | System = Tyrosyl-tRNA synthetase, putative (Trypanosoma cruzi (strain CL Brener)) | Percent Effect = ____
11.8

Entry "CCCNCc1cn(C)nc1-c1cccnc1" please
1.24

Entry Cn1c(Cn2cccn2)nnc1C1CCCN(c2ccncc2F)C1 (configuration not stated) please
12.2

Entry CNC(=O)C1CCC(NC(=O)N(C)Cc2c(C)noc2C)CC1 (configuration not stated) please
18.1

Entry O=C(CCCNc1ncccn1)N1CCCC(n2cccn2)C1 (configuration not stated) please
-2.53

Entry CCc1nc(N)sc1C(=O)N1CCCC(CCc2ccccc2C)C1 (configuration not stated) please
18.5

Entry "c1cnc2c(c1)cc(C1CCOCC1)n2CCN1CCOCC1" please
11.7

Entry "O=C([C@H]1CCCO1)N1CC[C@H](O)[C@@H]1Cc1ccncc1" please
1.28

Entry COc1ccc(C2CC(=O)Nc3c2cnn3C2CCCC2)cc1 (configuration not stated) please
4.88

Entry "CC(C)NC(=O)[C@H]1C[C@@H]2[C@@H](C1)OCCN2Cc1cnn(C)c1" please
10

Entry "O=C(COCc1ccccc1)N1CCC(OCc2cccnc2)CC1" please
12.2

Entry "O=C(c1ccc[nH]1)N1CCC2(CC1)C(=O)Nc1ccccc12" please
23.5
